Data provenance: patent US9421209B2

Parameter: inhibition at 1 µM. Scope: all listed entries.
molecular target: P110 δ/Pi3K δ (Homo sapiens); assay: Fluorescent (HTRF) determination of PI3K enzyme activity, δ isoform; type: biochemical
Sequence (O00329 whole entry, canonical isoform): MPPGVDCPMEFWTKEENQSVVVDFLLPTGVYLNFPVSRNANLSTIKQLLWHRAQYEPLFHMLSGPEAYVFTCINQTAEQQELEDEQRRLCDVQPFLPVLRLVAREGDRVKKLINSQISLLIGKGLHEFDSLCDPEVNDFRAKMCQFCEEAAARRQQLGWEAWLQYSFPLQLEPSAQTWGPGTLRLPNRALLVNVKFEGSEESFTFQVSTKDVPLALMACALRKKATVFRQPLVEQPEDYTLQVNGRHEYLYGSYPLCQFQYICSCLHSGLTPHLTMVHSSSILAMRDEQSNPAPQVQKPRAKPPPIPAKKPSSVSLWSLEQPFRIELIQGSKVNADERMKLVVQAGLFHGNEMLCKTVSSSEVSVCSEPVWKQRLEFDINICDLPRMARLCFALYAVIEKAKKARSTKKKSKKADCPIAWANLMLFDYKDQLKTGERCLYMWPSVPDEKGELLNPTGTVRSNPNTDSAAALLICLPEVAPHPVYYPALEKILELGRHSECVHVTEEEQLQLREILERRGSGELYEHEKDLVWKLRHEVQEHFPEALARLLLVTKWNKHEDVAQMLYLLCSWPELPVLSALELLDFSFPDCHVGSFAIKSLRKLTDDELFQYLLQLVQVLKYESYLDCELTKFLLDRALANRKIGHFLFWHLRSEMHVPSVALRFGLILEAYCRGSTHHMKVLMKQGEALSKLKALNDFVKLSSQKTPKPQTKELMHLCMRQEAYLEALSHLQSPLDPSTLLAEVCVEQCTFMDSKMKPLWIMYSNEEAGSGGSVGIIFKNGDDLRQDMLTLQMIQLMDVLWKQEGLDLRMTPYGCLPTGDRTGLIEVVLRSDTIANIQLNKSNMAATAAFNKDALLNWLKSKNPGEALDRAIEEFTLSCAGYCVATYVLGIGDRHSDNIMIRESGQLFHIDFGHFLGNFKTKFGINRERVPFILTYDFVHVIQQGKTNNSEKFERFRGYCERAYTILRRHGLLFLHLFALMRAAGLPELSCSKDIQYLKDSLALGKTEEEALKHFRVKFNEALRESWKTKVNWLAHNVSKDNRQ
Sequence (P27986 whole entry partner, canonical isoform): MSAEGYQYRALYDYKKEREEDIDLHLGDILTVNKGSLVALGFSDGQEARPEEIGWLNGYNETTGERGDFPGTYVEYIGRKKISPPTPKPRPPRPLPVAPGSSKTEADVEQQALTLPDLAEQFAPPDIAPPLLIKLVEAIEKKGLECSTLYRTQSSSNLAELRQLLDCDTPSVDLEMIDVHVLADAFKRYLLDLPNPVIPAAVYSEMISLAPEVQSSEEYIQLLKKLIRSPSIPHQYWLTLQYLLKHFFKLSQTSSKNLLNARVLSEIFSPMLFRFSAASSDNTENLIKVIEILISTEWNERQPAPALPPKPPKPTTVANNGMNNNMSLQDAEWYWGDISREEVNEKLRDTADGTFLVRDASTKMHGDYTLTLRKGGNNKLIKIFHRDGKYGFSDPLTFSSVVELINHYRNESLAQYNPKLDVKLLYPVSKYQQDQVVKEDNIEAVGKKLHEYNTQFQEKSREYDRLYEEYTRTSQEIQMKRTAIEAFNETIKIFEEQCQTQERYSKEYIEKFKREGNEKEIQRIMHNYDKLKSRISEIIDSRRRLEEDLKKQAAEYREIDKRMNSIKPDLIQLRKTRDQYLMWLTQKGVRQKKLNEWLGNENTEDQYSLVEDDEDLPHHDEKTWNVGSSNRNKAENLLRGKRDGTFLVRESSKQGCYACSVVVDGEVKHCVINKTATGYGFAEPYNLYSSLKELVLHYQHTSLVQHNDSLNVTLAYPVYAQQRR

| molecule | inhibition at 1 µM |
| --- | --- |
| C[C@H](Nc1ncnc2[nH]cnc12)c1oc2ccc(F)cc2c(=O)c1-c1cccc(F)c1 | 50 to 100% |

GET inhibition at 1 µM where system = P110 δ/Pi3K δ (Homo sapiens) and item = CCC(c1oc2ccccc2c(=O)c1-c1cccc(F)c1)n1cnc2c(N)ncnc21 (centres unmarked)
< 50%

GET inhibition at 1 µM where system = P110 δ/Pi3K δ (Homo sapiens) and item = `Nc1ncnc2c1ncn2Cc1oc2ccc(Br)cc2c(=O)c1-c1ccccc1`
< 50%

GET inhibition at 1 µM where system = P110 δ/Pi3K δ (Homo sapiens) and item = CCC(c1oc2ccccc2c(=O)c1-c1ccccc1)n1cnc2c(N)ncnc21 (centres unmarked)
50 to 100%

GET inhibition at 1 µM where system = P110 δ/Pi3K δ (Homo sapiens) and item = `Nc1ncnc2c1cnn2Cc1oc2ccc(Br)cc2c(=O)c1-c1ccccc1`
< 50%

GET inhibition at 1 µM where system = P110 δ/Pi3K δ (Homo sapiens) and item = CC(c1oc2ccc(F)cc2c(=O)c1-c1cccc(F)c1)n1cnc2c(N)ncnc21 (centres unmarked)
50 to 100%

GET inhibition at 1 µM where system = P110 δ/Pi3K δ (Homo sapiens) and item = CC(c1oc2ccccc2c(=O)c1-c1ccc(F)cc1)n1cnc2c(N)ncnc21 (centres unmarked)
< 50%

GET inhibition at 1 µM where system = P110 δ/Pi3K δ (Homo sapiens) and item = `C[C@H](Nc1ncnc2[nH]cnc12)c1oc2ccccc2c(=O)c1-c1ccccc1`
50 to 100%
